Tested on: Escherichia coli TOP10;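 note: peptides expressed intracellularly from a pBAD plasmid library in pooled LB shake-flask culture, induced with 0.3% L-arabinose, DNA abundance read by NGS, three biological replicates, DESeq2 with apeglm shrinkage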
Assay: shrunken log2 fold change of peptide-encoding DNA abundance (4.5 h post-induction vs induction); higher = less antimicrobial activity (less host growth inhibition)
Conditions: time post-induction: 4.5 h; library: site-saturation at positions 5, 18, 19, 20
Our labelling divides records by shrunken log2 fold change into ranges: lower level: < -0.1; middle level: ≥ -0.1 and < 0.3; upper level: ≥ 0.3

1) RRIRERPPRLPRPRPRPYICPRP lower level
2) RRIRFRPPRLPRPRPRPVHSPRP lower level
3) RRIRPRPPRLPRPRPRPEISPRP middle level
4) RRIRLRPPRLPRPRPRPGGQPRP upper level
5) RRIRFRPPRLPRPRPRPGKTPRP lower level
6) RRIRRRPPRLPRPRPRPFVDPRP middle level

Which class holds RRIRRRPPRLPRPRPRPEFDPRP ?
upper level

Which class holds RRIRERPPRLPRPRPRPEDQPRP ?
middle level

Which class holds RRIRTRPPRLPRPRPRPLYQPRP ?
lower level

Which class holds RRIRRRPPRLPRPRPRPGPAPRP ?
upper level

Which class holds RRIRWRPPRLPRPRPRPTSVPRP ?
middle level

Which class holds RRIRCRPPRLPRPRPRPIFDPRP ?
lower level

Which class holds RRIRIRPPRLPRPRPRPLAEPRP ?
lower level

Which class holds RRIRFRPPRLPRPRPRPVVGPRP ?
upper level
